Reference for the values: paper PMC11574364

Molecular target: RBM3 (Homo sapiens, UniProt P98179)
Sequence (P98179 1-110): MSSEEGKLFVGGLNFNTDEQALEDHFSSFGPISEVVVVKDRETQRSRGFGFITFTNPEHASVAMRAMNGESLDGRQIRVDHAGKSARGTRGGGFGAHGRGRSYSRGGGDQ
Assay: protein domain microarray probed with biotinylated miRNA; Domain array: 20 mM Tris-HCl pH 7.4, 200 mM KCl, 0.2 mM EDTA, 0.05% NP40, 2 ug/ul heparin, overnight 4 C. ORF array: PBS pH 7.0 with RNase inhibitor, 100 ng RNA; high values mean tight binding
Conditions: ssRNA
# maps each entry to its binding signal

{"columns": ["Sequence Input", "Output Unit", "binding signal"],
 "data": [
  ["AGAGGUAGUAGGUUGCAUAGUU", "fluorescence intensity", 2300],
  ["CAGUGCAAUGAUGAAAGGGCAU", "fluorescence intensity", 1390],
  ["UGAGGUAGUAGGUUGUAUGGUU", "fluorescence intensity", 1640],
  ["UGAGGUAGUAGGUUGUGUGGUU", "fluorescence intensity", 1550]
]}

---

# maps each entry to its binding signal
Target: RDBP (Homo sapiens, UniProt P18615)
Sequence (P18615 240-355): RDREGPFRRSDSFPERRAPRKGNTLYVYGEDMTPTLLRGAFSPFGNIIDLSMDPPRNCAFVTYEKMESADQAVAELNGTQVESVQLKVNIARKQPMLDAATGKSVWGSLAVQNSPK
Assay: protein domain microarray probed with biotinylated miRNA; Domain array: 20 mM Tris-HCl pH 7.4, 200 mM KCl, 0.2 mM EDTA, 0.05% NP40, 2 ug/ul heparin, overnight 4 C. ORF array: PBS pH 7.0 with RNase inhibitor, 100 ng RNA; high values mean tight binding
Details: ssRNA

{"columns": ["Sequence Input", "Output Unit", "binding signal"],
 "data": [
  ["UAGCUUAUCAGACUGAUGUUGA", "fluorescence intensity", 20.3],
  ["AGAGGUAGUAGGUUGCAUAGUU", "fluorescence intensity", 47.7],
  ["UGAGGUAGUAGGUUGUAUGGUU", "fluorescence intensity", 52.2],
  ["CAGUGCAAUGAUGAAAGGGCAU", "fluorescence intensity", 43.1]
]}

---

# maps each entry to its binding signal
Target: RBM7 (Homo sapiens, UniProt Q9Y580)
Sequence: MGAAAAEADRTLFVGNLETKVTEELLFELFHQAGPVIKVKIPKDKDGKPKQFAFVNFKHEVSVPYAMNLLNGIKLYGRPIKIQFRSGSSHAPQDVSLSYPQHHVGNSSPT
Assay: protein domain microarray probed with biotinylated miRNA; Domain array: 20 mM Tris-HCl pH 7.4, 200 mM KCl, 0.2 mM EDTA, 0.05% NP40, 2 ug/ul heparin, overnight 4 C. ORF array: PBS pH 7.0 with RNase inhibitor, 100 ng RNA; high values mean tight binding
Settings: ssRNA

{"columns": ["Sequence Input", "binding signal"],
 "data": [
  ["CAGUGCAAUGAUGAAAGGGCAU", "34 fluorescence intensity"],
  ["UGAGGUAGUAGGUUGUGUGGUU", "50.2 fluorescence intensity"],
  ["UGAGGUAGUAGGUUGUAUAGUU", "22.1 fluorescence intensity"],
  ["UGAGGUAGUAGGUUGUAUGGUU", "45.3 fluorescence intensity"]
]}

---

Molecular target: IGF2BP1(3-4) (Homo sapiens, UniProt Q9NZI8)
Sequence (Q9NZI8 388-577): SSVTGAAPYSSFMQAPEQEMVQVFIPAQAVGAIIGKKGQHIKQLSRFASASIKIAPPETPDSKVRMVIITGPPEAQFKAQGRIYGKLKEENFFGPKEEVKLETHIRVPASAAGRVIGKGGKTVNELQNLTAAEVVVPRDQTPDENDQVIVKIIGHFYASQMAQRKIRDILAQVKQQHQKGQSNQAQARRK
Test: protein domain microarray probed with biotinylated miRNA; Domain array: 20 mM Tris-HCl pH 7.4, 200 mM KCl, 0.2 mM EDTA, 0.05% NP40, 2 ug/ul heparin, overnight 4 C. ORF array: PBS pH 7.0 with RNase inhibitor, 100 ng RNA; high values mean tight binding
Settings: ssRNA

{"columns": ["Sequence Input", "binding signal / fluorescence intensity"],
 "data": [
  ["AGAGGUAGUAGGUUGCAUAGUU", 955],
  ["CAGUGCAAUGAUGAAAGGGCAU", 436],
  ["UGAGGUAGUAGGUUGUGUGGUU", 1120],
  ["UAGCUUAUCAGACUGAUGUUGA", 22],
  ["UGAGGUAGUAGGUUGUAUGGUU", 1620]
]}
